Biological target: T1, human full-length Notch3 with C-terminal FLAG tag, stably expressed on 293 FlpIn (TREx) cells (human, UniProt Q9UM47 40-2321)
T1 construct: whole, on cells; made by the same strategy as the Notch1 line; also called 293-N3; hN3
Test: FACS, phage scFv

[
  {
    "BINDER": "N1wc129 (scFv, V domains shown, phage scFv) VH: QVQLVQSGAEVKKPGASVKVSCKASGYNFTGYYLHWVRQAPGQGLEWMGWIDPNSGGTDYAQQFQGRVTVTRDTSISTAYMELSGLRSDDTAVYYCASDSFDHWGQGTLVTVSS VL: QSVLTQPPSASGTPGQRATISCSGSGSNIGRNAVNWFQQLPGAAPKLLIYSNIHRPSGVPDRISGSKSGTSATLAISGLQSEDEADYYCATWDDSLNDYVFGTGTKLTVL",
    "binding result": "binds"
  },
  {
    "BINDER": "N1wc113 (scFv, V domains shown, phage scFv) VH: QMQLVQSGAEVKRPGASVNLSCKASGYSFSRYYIHWVRQAPGQGLELMGRINPGGGTTTYAQKFQGRVTLSRDTSTNTIFMELNGLTSEDTAMYYCARSNYDILAGYGPDAFDFWGQGTMVTVSS VL: QAVLTQPSSVSGAPGQRVTISCTGSSSNIGAGNDVHWYRQFPGTAPKLLIYGNNKRPSGVSDRFSGSKSGTSASLAITGLQVEDEADYYCQSYDSSLGGSDVFGGGTKLTVL",
    "binding result": "binds"
  }
]

Hey, just so you know, these numbers are from patent US20110286916A1.
